# maps each entry to its Biodistribution: Spleen
# System: PIP tumor and PC3 tumor
# procedureDetails: Biodistribution of 125I labeled compounds 17, 18, 26 and 27 in tumor bearing nude mice
# Type: in vivo
# statedConditions: 1 h
Write the number in % ID/g without appending the unit.

Use the examples below as a reference point.
O=C(O)CC[C@H](NC(=O)N[C@@H](CCCCNC(=O)[C@H](Cc1ccccc1)NC(=O)[C@H](CCC(=O)O)NC(=O)[C@H](CCC(=O)O)NC(=O)c1ccc([125I])cc1)C(=O)O)C(=O)O [[^125I]18]    6.83
O=C(O)CC[C@H](NC(=O)N[C@@H](CCCCNC(=O)[C@H](Cc1ccccc1)NC(=O)[C@H](CCC(=O)O)NC(=O)c1ccc([125I])cc1)C(=O)O)C(=O)O [[^125I]17]    3.25
O=C(O)CC[C@H](NC(=O)N[C@@H](CCCCNC(=O)[C@H](Cc1ccccc1)NC(=O)COc1ccc(C[C@H](NC(=O)[C@H](CCC(=O)O)NC(=O)c2ccc([125I])cc2)C(=O)O)cc1)C(=O)O)C(=O)O [[^125I]26]    21.66

**Query** Notebook: pull reported Biodistribution: Spleen for PIP tumor and PC3 tumor, entry O=C(O)CC[C@H](NC(=O)N[C@@H](CCCCNC(=O)[C@H](Cc1ccccc1)NC(=O)COc1ccc(C[C@H](NC(=O)[C@H](CCC(=O)O)NC(=O)[C@H](CCC(=O)O)NC(=O)c2ccc([125I])cc2)C(=O)O)cc1)C(=O)O)C(=O)O [[^125I]27]
**Result** 12.25

###

# maps each entry to its Biodistribution: Bone
# System: PIP tumor and PC3 tumor
# procedureDetails: Biodistribution of 125I labeled compounds 17, 18, 26 and 27 in tumor bearing nude mice
# Type: in vivo
# statedConditions: 4 h
// unit must come after the numeric part

Use the examples below as a reference point.
O=C(O)CC[C@H](NC(=O)N[C@@H](CCCCNC(=O)[C@H](Cc1ccccc1)NC(=O)[C@H](CCC(=O)O)NC(=O)[C@H](CCC(=O)O)NC(=O)c1ccc([125I])cc1)C(=O)O)C(=O)O [[^125I]18]    0.45 ± 0.23 % ID/g
O=C(O)CC[C@H](NC(=O)N[C@@H](CCCCNC(=O)[C@H](Cc1ccccc1)NC(=O)[C@H](CCC(=O)O)NC(=O)c1ccc([125I])cc1)C(=O)O)C(=O)O [[^125I]17]    0.03 ± 0.02 % ID/g

**Query** Look up Biodistribution: Bone for this compound: O=C(O)CC[C@H](NC(=O)N[C@@H](CCCCNC(=O)[C@H](Cc1ccccc1)NC(=O)COc1ccc(C[C@H](NC(=O)[C@H](CCC(=O)O)NC(=O)[C@H](CCC(=O)O)NC(=O)c2ccc([125I])cc2)C(=O)O)cc1)C(=O)O)C(=O)O [[^125I]27]
**Result** 0.56 ± 0.05 % ID/g

**Query** Look up Biodistribution: Bone for this compound: O=C(O)CC[C@H](NC(=O)N[C@@H](CCCCNC(=O)[C@H](Cc1ccccc1)NC(=O)COc1ccc(C[C@H](NC(=O)[C@H](CCC(=O)O)NC(=O)c2ccc([125I])cc2)C(=O)O)cc1)C(=O)O)C(=O)O [[^125I]26]
**Result** 0.25 ± 0.06 % ID/g
